The origin of these recorded values is patent US20180214548A1.

binders and their reported OD450 nm
Biological target: T1, cyno PD-1^ECD-hFc protein (cyno monkey, UniProt B0LAJ3 25-167)
T1 construct: Prepared by the method for Immunogen A; also called Cyno Monkey PD-1^ECD-hFc; cyno monkey PD-1-hFc; not shown: human IgG Fc fragment (hFc) and its junction to the ECD
T1 sequence (B0LAJ3 entry or part of it limits assumed): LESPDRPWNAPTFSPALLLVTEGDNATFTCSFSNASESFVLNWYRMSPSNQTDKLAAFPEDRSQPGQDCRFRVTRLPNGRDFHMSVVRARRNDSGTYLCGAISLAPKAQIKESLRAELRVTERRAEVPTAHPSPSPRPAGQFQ
Assay: ELISA, coated cyno PD-1ECD-hFc; antibody 0.1 nM
Description: 100 uL of the diluted recombinant proteins were added to each well of 96-well plate. The plates were sealed with plastic film and incubated at 4° C. overnight. The plates were washed twice with wash buffer (PBS+0.01% (v/v) Tween20), and incubated with blocking buffer (PBS+0.01% (v/v) Tween20+1% (w/w) BSA) at room temperature for 2 hours. […] The absorbance at 450 nm was measured with an ELISA plate reader (384plus SpectraMax, Molecular Devices).
Form rule: numeric answer, no unit written next to it.

Binder	Recorded Number
chimeric anti-PD-1 antibody 223G6B5 (antibody, V domains shown, Purified from hybridoma of Harbour H2L2 mice: human variable regions, rat constant regions) VH: QVQLQESGPGLVKPSETLSLTCAVSGHSIRGSYFWGWIRQPPGRGLEWIGSIYHSGSTYTNPSLKSRATISVDTSKNQFSLKLNSVTAADTAVYYCARDLDIATTRDYWGQGTLVTVSS VL: DIQLTQSPSFLSASVGDRVTIICRASQGINNYLAWYQQKPGKAPKLLIYAASTLQSGVPSRFSGSGSGTEFTLTISSLQPEDFATYYCQQLDSYPRTFGQGTKVEIKR	1.28
chimeric anti-PD-1 antibody 32B5C7 (antibody, V domains shown, Purified from hybridoma of Harbour H2L2 mice: human variable regions, rat constant regions) VH: EVQLLESGGGLVQPGGSLRLSCAASGFTFSSYAMSWVRQAPGKGLEWVSTISGSGGTTYYADSVKGRFTISRDNSKNTLYLQMNSLRAEDTAVYYCTLTGDPDYWGQGTLVTVSS VL: EIVLTQSPATLSLSPGERATLSCRASQSVSSYLAWYQQKPGQAPRLLIYDASKRATGIPARFSGSGSGTDFTLTISSLEPEDFAVYYCQQRNNWPLTFGGGTKVEIK	0.29

Here is another binder to look at.
Requested field: OD450 nm. Item: chimeric anti-PD-1 antibody 76G5B3 (antibody, V domains shown, Purified from hybridoma of Harbour H2L2 mice: human variable regions, rat constant regions) VH: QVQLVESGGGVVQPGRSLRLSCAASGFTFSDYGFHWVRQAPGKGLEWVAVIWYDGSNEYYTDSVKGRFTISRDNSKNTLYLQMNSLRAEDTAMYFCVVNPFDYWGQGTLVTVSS VL: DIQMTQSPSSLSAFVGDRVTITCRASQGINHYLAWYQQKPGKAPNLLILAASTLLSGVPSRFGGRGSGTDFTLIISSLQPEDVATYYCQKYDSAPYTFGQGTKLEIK
0.56
